compounds and their reported melting point

{"columns": ["smiles.code", "result"],
 "data": [
  ["COc1cc(-c2cn3ccccc3n2)ccc1OCc1ccccc1F", "115 to 117 °C"],
  ["COc1cc(-c2cn3ccccc3n2)ccc1OCc1ccc(C(F)(F)F)cc1", "172 to 173 °C"],
  ["COc1cc(-c2cn3cc(Cl)cc(Cl)c3n2)ccc1OCc1ccc(C#N)cc1", "187 to 189 °C"],
  ["COc1cc(-c2cn3cccc(O)c3n2)ccc1OCc1ccccc1", "187 to 189 °C"],
  ["COc1cc(-c2cn3cc(Br)ccc3n2)ccc1OCc1ccccc1", "175 to 176 °C"]
]}

# input Give its melting point value. Item: "COc1cc(-c2cn3cc(C)cc(Br)c3n2)ccc1OCc1ccccc1"
# output 136 to 137 °C

----------
Quick reference for melting point among some compounds

{"columns": ["compound", "result"],
 "data": [
  ["COc1cc(-c2cn3cccc(C)c3n2)ccc1OCc1ccc(Cl)cc1 [Example 73]", "132 to 133 °C"],
  ["Cc1cc(-c2cn3ccccc3n2)ccc1OCc1ccccc1 [Example 39]", "123 to 124 °C"],
  ["COc1cc(-c2cn3ccccc3n2)ccc1Oc1ccccc1 [Example 138]", "95 to 97 °C"],
  ["COc1cc(-c2nc3ccccn3c2Cl)ccc1OCc1ccc(Cl)cc1 [Example 19]", "139 to 140 °C"]
]}

Okay, now this compound:
# input Endpoint output: melting point of COc1cc(-c2cn3cc(Cl)ccc3n2)ccc1OCc1ccccc1 [Example 18] . Value?
# output 177 to 179 °C

----------
property.measured: melting point

# count of solved cases: 2
{"columns": ["smiles.code", "property.measured", "result"],
 "data": [
  ["COc1cc(-c2nc3ccccc3s2)ccc1OCc1ccccc1", "melting point", "108 to 109 °C"],
  ["COc1cc(-c2cn3cc(Br)cc(C)c3n2)ccc1OCc1ccc(Cl)cc1", "melting point", "155 to 156 °C"]
]}

# input Can you share its melting point? I mean this molecule: "COC(=O)c1ccc(COc2ccc(-c3cn4ccccc4n3)cc2OC)cc1"
# output 125 to 126 °C

# input Consider the molecule shown here: "COc1cc(-c2cn3cc(Br)cc(C)c3n2)ccc1OCc1ccc(C#N)cc1" What is its recorded melting point?
# output 177 to 178 °C

----------
- Test system: human LPL mRNA
- protocol.text: Test for increase in LPL mRNA expression (luciferase assay, HTB-92/p387/p383 cell line)
- Type: cell-based
- assay.context: 120 h, concentration that increases LPL mRNA expression over the control by 50%, HTB-92/p387/p383 cells, 5 days
pEC50: −log10 of the molar value.
property.measured: pEC50

A. COc1cc(-c2cn3ccccc3n2)ccc1OCc1ccc(C#N)cc1
B. COc1cc(-c2cn3ccccc3n2)ccc1OCc1ccccc1F
# input # min-compare on pEC50 between A and B # answer = label of selected item
# output A

----------
- Test system: human LPL mRNA
- protocol.text: Test for increase in LPL mRNA expression (luciferase assay, HTB-92/p387/p383 cell line)
- Format: cell-based
- assay.context: 120 h, concentration that increases LPL mRNA expression over the control by 50%, HTB-92/p387/p383 cells, 5 days
pEC50: −log10 of the molar value.
property.measured: pEC50

{"columns": ["molecule", "study.system", "pEC50"],
 "data": [
  ["COc1cc(-c2cn3ccccc3n2)ccc1O[C@@H](C)c1ccccc1 [Example 134]", "human LPL mRNA", 5.19],
  ["COc1cc(-c2cn3ccccc3n2)ccc1OCc1cccc(F)c1 [Example 5]", "human LPL mRNA", 5.44],
  ["COc1cc(-c2cnc3ccccn23)ccc1OCc1ccc(Cl)cc1 [Example 109]", "human LPL mRNA", 5.52]
]}

A. COc1cc(-c2cnc3ccccn23)ccc1OCc1ccc(Cl)c(Cl)c1 [Example 117]
B. COc1cc(-c2cn3ccccc3n2)ccc1OCc1ccccc1 [Example 1]
# input Of the two listed items, which has the higher pEC50? First: A Second: B Your choice should be expressed through its label.
# output A
(A: 5.48, B: 5.20)
